Entry source: ChEMBL document CHEMBL1136147

Assign pEC50 to each entry below.
- systemTested: Melanocyte-stimulating hormone receptor (Homo sapiens)
- methodSummary: In vitro agonist potency was evaluated in HEK293 cells transfected with human melanocortin receptor (hMC1R)
Give bare numbers, as −log10 of the molar value.

Examples with their reported pEC50 follow.
smilesRepr	pEC50
CC(=O)N[C@@H](Cc1c[nH]cn1)C(=O)N[C@@H](Cc1ccccc1)C(=O)N[C@@H](CCCN=C(N)N)C(=O)N[C@@H](Cc1c[nH]c2ccccc12)C(N)=O	7.89
N#CCC(=O)N[C@@H](Cc1c[nH]cn1)C(=O)N[C@@H](Cc1ccccc1)C(=O)N[C@@H](CCCNC(=N)N)C(=O)N[C@@H](Cc1c[nH]c2ccccc12)C(N)=O	8.10
CCCC(=O)N[C@@H](Cc1cnc[nH]1)C(=O)N[C@@H](Cc1ccccc1)C(=O)N[C@@H](CCCNC(=N)N)C(=O)N[C@@H](Cc1c[nH]c2ccccc12)C(N)=O	8.35

Provide reported pEC50 for each item, in the same order as listed.
1. N=C(N)NCCC[C@H](NC(=O)[C@H](Cc1ccccc1)NC(=O)[C@H](Cc1cnc[nH]1)NC(=O)CCCO)C(=O)N[C@@H](Cc1c[nH]c2ccccc12)C(N)=O
2. N=C(N)NCCC[C@H](NC(=O)[C@H](Cc1ccccc1)NC(=O)[C@H](Cc1c[nH]cn1)NC(=O)CCc1ccccc1)C(=O)N[C@@H](Cc1c[nH]c2ccccc12)C(N)=O
3. N=C(N)NCCC[C@H](NC(=O)[C@H](Cc1ccccc1)NC(=O)[C@H](Cc1c[nH]cn1)NC(=O)c1ccccc1)C(=O)N[C@@H](Cc1c[nH]c2ccccc12)C(N)=O

A)
1. 7.86
2. 9.30
3. 8.17

----------
- systemTested: Melanocortin receptor 4 (Homo sapiens, UniProt P32245)
- Sequence (P32245 whole entry): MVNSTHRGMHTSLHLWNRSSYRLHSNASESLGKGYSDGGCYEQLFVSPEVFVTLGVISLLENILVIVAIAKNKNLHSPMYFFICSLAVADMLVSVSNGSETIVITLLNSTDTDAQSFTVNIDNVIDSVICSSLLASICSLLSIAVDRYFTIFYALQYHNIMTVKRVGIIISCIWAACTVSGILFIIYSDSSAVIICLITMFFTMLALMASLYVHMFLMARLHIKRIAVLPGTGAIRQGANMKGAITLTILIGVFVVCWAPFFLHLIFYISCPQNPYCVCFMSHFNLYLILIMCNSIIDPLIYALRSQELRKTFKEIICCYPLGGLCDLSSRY
pKi: −log10 of the molar value.
I would appreciate it if you labelled entries YES when pKi is 7 or higher, otherwise NO.

Q) Does pKi meet or surpass 7 for CS(=O)(=O)N[C@@H](Cc1c[nH]cn1)C(=O)N[C@@H](Cc1ccccc1)C(=O)N[C@@H](CCCN=C(N)N)C(=O)N[C@@H](Cc1c[nH]c2ccccc12)C(N)=O ?
A) NO

Q) Does pKi meet or surpass 7 for N=C(N)NCCC[C@H](NC(=O)[C@H](Cc1ccccc1)NC(=O)[C@H](Cc1cnc[nH]1)NC(=O)Cc1ccc(Cl)cc1)C(=O)N[C@@H](Cc1c[nH]c2ccccc12)C(N)=O ?
A) YES

Q) Does pKi meet or surpass 7 for N=C(N)NCCC[C@H](NC(=O)[C@H](Cc1ccccc1)NC(=O)[C@H](Cc1c[nH]cn1)NC(=O)CC(F)(F)F)C(=O)N[C@@H](Cc1c[nH]c2ccccc12)C(N)=O ?
A) NO

Q) Does pKi meet or surpass 7 for N=C(N)NCCC[C@H](NC(=O)[C@H](Cc1ccccc1)NC(=O)[C@H](Cc1c[nH]cn1)NC(=O)C(O)Cc1ccccc1)C(=O)N[C@@H](Cc1c[nH]c2ccccc12)C(N)=O (some centres not stated) ?
A) YES

Q) Does pKi meet or surpass 7 for N=C(N)NCCC[C@H](NC(=O)[C@H](Cc1ccccc1)NC(=O)[C@@H](N)Cc1cnc[nH]1)C(=O)N[C@@H](Cc1c[nH]c2ccccc12)C(N)=O ?
A) NO

----------
Assign pEC50 to each entry below.
- systemTested: Melanocortin receptor 4 (Homo sapiens, UniProt P32245)
- methodSummary: In vitro agonist potency was evaluated in HEK293 cells transfected with human melanocortin receptor (hMC4R)
One number for each entry, as −log10 of the molar value.

Examples with their reported pEC50 follow.
compound	pEC50
N=C(N)NCCC[C@H](NC(=O)[C@H](Cc1ccccc1)NC(=O)[C@H](Cc1c[nH]cn1)NC(=O)CCc1ccccc1)C(=O)N[C@@H](Cc1c[nH]c2ccccc12)C(N)=O	7.70
N=C(N)NCCC[C@H](NC(=O)[C@H](Cc1ccccc1)NC(=O)[C@H](Cc1cnc[nH]1)NC(=O)C1CC1)C(=O)N[C@@H](Cc1c[nH]c2ccccc12)C(N)=O	7.69
COCC(=O)N[C@@H](Cc1cnc[nH]1)C(=O)N[C@@H](Cc1ccccc1)C(=O)N[C@@H](CCCNC(=N)N)C(=O)N[C@@H](Cc1c[nH]c2ccccc12)C(N)=O	7.37
N=C(N)NCCC[C@H](NC(=O)[C@H](Cc1ccccc1)NC(=O)[C@H](Cc1c[nH]cn1)NC(=O)C(O)Cc1ccccc1)C(=O)N[C@@H](Cc1c[nH]c2ccccc12)C(N)=O (stereo partly specified)	8.20
N#CCC(=O)N[C@@H](Cc1c[nH]cn1)C(=O)N[C@@H](Cc1ccccc1)C(=O)N[C@@H](CCCNC(=N)N)C(=O)N[C@@H](Cc1c[nH]c2ccccc12)C(N)=O	7.74

Please find the next compound below.
Q) // query pEC50 value for entry N=C(N)NCCC[C@H](NC(=O)[C@H](Cc1ccccc1)NC(=O)[C@H](Cc1c[nH]cn1)NC(=O)CO)C(=O)N[C@@H](Cc1c[nH]c2ccccc12)C(N)=O
A) 7.28

----------
Assign pEC50 to each entry below.
- systemTested: Melanocortin receptor 4 (Homo sapiens, UniProt P32245)
- methodSummary: In vitro agonist potency was evaluated in HEK293 cells transfected with human melanocortin receptor (hMC4R)
Give bare numbers, as −log10 of the molar value.

Examples with their reported pEC50 follow.
smilesRepr	pEC50
CC(C)C(=O)N[C@@H](Cc1cnc[nH]1)C(=O)N[C@@H](Cc1ccccc1)C(=O)N[C@@H](CCCNC(=N)N)C(=O)N[C@@H](Cc1c[nH]c2ccccc12)C(N)=O	7.62
N=C(N)NCCC[C@H](NC(=O)[C@H](Cc1ccccc1)NC(=O)[C@H](Cc1cnc[nH]1)NC(=O)C(N)=O)C(=O)N[C@@H](Cc1c[nH]c2ccccc12)C(N)=O	7.78

Provide reported pEC50 for each item, in the same order as listed.
1. N=C(N)NCCC[C@H](NC(=O)[C@H](Cc1ccccc1)NC(=O)[C@H](Cc1cnc[nH]1)NC(=O)CCCO)C(=O)N[C@@H](Cc1c[nH]c2ccccc12)C(N)=O
2. N=C(N)NCCC[C@H](NC(=O)[C@H](Cc1ccccc1)NC(=O)[C@H](Cc1cnc[nH]1)NS(=O)(=O)c1ccc(Cl)cc1)C(=O)N[C@@H](Cc1c[nH]c2ccccc12)C(N)=O
3. CC(C)(C)C(=O)N[C@@H](Cc1cnc[nH]1)C(=O)N[C@@H](Cc1ccccc1)C(=O)N[C@@H](CCCNC(=N)N)C(=O)N[C@@H](Cc1c[nH]c2ccccc12)C(N)=O
4. N=C(N)NCCC[C@H](NC(=O)[C@H](Cc1ccccc1)NC(=O)[C@H](Cc1c[nH]cn1)NC(=O)Cc1ccccc1)C(=O)N[C@@H](Cc1c[nH]c2ccccc12)C(N)=O

A)
[7.67, 7.96, 7.84, 7.89]

----------
- systemTested: Melanocyte-stimulating hormone receptor (Homo sapiens, UniProt Q01726)
- Sequence (Q01726 whole entry): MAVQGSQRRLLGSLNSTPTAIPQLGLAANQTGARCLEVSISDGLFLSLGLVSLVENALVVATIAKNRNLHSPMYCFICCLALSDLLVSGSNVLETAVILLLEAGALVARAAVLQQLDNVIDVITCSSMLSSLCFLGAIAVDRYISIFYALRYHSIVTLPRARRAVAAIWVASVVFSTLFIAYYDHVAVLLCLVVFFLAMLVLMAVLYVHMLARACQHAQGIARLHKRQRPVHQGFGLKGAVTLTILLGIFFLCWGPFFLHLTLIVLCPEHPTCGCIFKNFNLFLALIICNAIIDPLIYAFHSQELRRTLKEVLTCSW
- methodSummary: In vitro agonist potency was evaluated in HEK293 cells transfected with human melanocortin receptor (hMC1R)
reportedEndpoint: pEC50
Give bare numbers, as −log10 of the molar value.

Provide reported pEC50 for each item, in the same order as listed.
1. CCCCC(=O)N[C@@H](Cc1cnc[nH]1)C(=O)N[C@@H](Cc1ccccc1)C(=O)N[C@@H](CCCNC(=N)N)C(=O)N[C@@H](Cc1c[nH]c2ccccc12)C(N)=O
2. NC(=O)[C@H](Cc1c[nH]c2ccccc12)NC(=O)[C@H](CCCN=C(N)N)NC(=O)[C@@H](Cc1ccccc1)NC(=O)[C@H](Cc1cnc[nH]1)NC(=O)CCCc1ccccc1
3. N=C(N)NCCC[C@H](NC(=O)[C@H](Cc1ccccc1)NC(=O)[C@H](Cc1c[nH]cn1)NC(=O)COc1ccc(Cl)cc1)C(=O)N[C@@H](Cc1c[nH]c2ccccc12)C(N)=O
4. COCC(=O)N[C@@H](Cc1cnc[nH]1)C(=O)N[C@@H](Cc1ccccc1)C(=O)N[C@@H](CCCNC(=N)N)C(=O)N[C@@H](Cc1c[nH]c2ccccc12)C(N)=O
5. N=C(N)NCCC[C@H](NC(=O)[C@H](Cc1ccccc1)NC(=O)[C@H](Cc1cnc[nH]1)NS(=O)(=O)c1ccc(Cl)cc1)C(=O)N[C@@H](Cc1c[nH]c2ccccc12)C(N)=O

A)
[8.70, 11.05, 8.70, 8.02, 7.48]

----------
- systemTested: Melanocortin receptor 3 (Homo sapiens, UniProt P41968)
- Sequence (P41968 whole entry): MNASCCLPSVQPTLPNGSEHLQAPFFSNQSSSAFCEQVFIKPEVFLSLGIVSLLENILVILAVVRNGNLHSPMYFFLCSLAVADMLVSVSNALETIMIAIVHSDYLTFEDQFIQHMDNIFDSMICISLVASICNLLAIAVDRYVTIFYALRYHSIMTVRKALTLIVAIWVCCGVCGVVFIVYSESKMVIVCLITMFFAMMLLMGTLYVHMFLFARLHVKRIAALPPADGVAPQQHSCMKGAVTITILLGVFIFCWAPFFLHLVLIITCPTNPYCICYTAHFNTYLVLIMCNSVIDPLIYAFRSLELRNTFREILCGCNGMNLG
- methodSummary: In vitro agonist potency was evaluated in HEK293 cells transfected with human melanocortin receptor (hMC3R)
Classify: true when EC50 is strictly less than 200 nM; false when EC50 is not.

Reference set (3 entries):
smilesRepr	categoryLabel
N=C(N)NCCC[C@H](NC(=O)[C@H](Cc1ccccc1)NC(=O)[C@H](Cc1cnc[nH]1)NS(=O)(=O)c1ccc(Cl)cc1)C(=O)N[C@@H](Cc1c[nH]c2ccccc12)C(N)=O	false
CS(=O)(=O)N[C@@H](Cc1c[nH]cn1)C(=O)N[C@@H](Cc1ccccc1)C(=O)N[C@@H](CCCN=C(N)N)C(=O)N[C@@H](Cc1c[nH]c2ccccc12)C(N)=O	false
CC(C)(C)C(=O)N[C@@H](Cc1cnc[nH]1)C(=O)N[C@@H](Cc1ccccc1)C(=O)N[C@@H](CCCNC(=N)N)C(=O)N[C@@H](Cc1c[nH]c2ccccc12)C(N)=O	true

Q) Please check: EC50 for CSCC(=O)N[C@@H](Cc1cnc[nH]1)C(=O)N[C@@H](Cc1ccccc1)C(=O)N[C@@H](CCCNC(=N)N)C(=O)N[C@@H](Cc1c[nH]c2ccccc12)C(N)=O , strictly under 200 nM or not?
A) false

Q) Please check: EC50 for N=C(N)NCCC[C@H](NC(=O)[C@H](Cc1ccccc1)NC(=O)[C@H](Cc1c[nH]cn1)NC(=O)COc1ccc(Cl)cc1)C(=O)N[C@@H](Cc1c[nH]c2ccccc12)C(N)=O , strictly under 200 nM or not?
A) true
